# Test system: MCF7
# test protocol: Cytotoxicity against 8 Gy irradiated human MCF7 cells assessed as surviving fraction at 100 uM after 1 hr by clonogenic assay (reference value: 0.927 +/- 0.02)
# Format: functional
reported endpoint: Activity

Worked examples follow.
Supply reported Activity belonging to this compound: COc1ccc(C2C(C#N)=C(/N=C/c3ccc(Cl)cc3)Oc3nc(Nc4ccc(S(N)(=O)=O)cc4)sc32)cc1 (stereo not given)
0.201 fraction (of control)

Supply reported Activity belonging to this compound: COc1ccc(C2C(C#N)=C(/N=C/c3cccc(Br)c3)Oc3nc(Nc4ccc(S(N)(=O)=O)cc4)sc32)cc1 (stereo not given)
0.235 fraction (of control)

Supply reported Activity belonging to this compound: COc1ccc(C2C(C#N)=C(N)Oc3nc(Nc4ccc(S(N)(=O)=O)cc4)sc32)cc1 (stereo not given)
0.201 fraction (of control)

Supply reported Activity belonging to this compound: COc1ccc(C2C(C#N)=C(/N=C/c3ccc([N+](=O)[O-])cc3)Oc3nc(Nc4ccc(S(N)(=O)=O)cc4)sc32)cc1 (stereo not given)
0.13 fraction (of control)

Please turn your attention to the following entry.
Supply reported Activity belonging to this compound: COc1ccc(C2C(C#N)=C(/N=C/c3ccccc3Cl)Oc3nc(Nc4ccc(S(N)(=O)=O)cc4)sc32)cc1 (stereo not given)
0.119 fraction (of control)

====

# System: MCF7
# test protocol: Cytotoxicity against 8 Gy irradiated human MCF7 cells assessed as surviving fraction at 25 uM after 1 hr by clonogenic assay (reference value: 0.927 +/- 0.02)
# Assay type: functional
Measured Activity by item

Worked examples follow.
Supply reported Activity belonging to this molecule: COc1ccc(C2C(C#N)=C(/N=C/c3ccccc3Cl)Oc3nc(Nc4ccc(S(N)(=O)=O)cc4)sc32)cc1 (stereo not given)
0.237 fraction (of 1)

Supply reported Activity belonging to this molecule: COc1ccc(C2C(C#N)=C(/N=C/c3cccc(Br)c3)Oc3nc(Nc4ccc(S(N)(=O)=O)cc4)sc32)cc1 (stereo not given)
0.211 fraction (of 1)

Supply reported Activity belonging to this molecule: COc1ccc(C2C(C#N)=C(N)Oc3nc(Nc4ccc(S(N)(=O)=O)cc4)sc32)cc1 (stereo not given)
0.346 fraction (of 1)

Supply reported Activity belonging to this molecule: COc1ccc(C2C(C#N)=C(/N=C/c3ccc(Cl)cc3)Oc3nc(Nc4ccc(S(N)(=O)=O)cc4)sc32)cc1 (stereo not given)
0.217 fraction (of 1)

Please turn your attention to the following entry.
Supply reported Activity belonging to this molecule: COc1ccc(C2C(C#N)=C(/N=C/c3ccc([N+](=O)[O-])cc3)Oc3nc(Nc4ccc(S(N)(=O)=O)cc4)sc32)cc1 (stereo not given)
0.201 fraction (of 1)

====

# System: MCF7
# test protocol: Cytotoxicity against human MCF7 cells assessed as surviving fraction at 10 uM after 48 hrs by sulforhodamine B assay
# Format: functional
reported endpoint: Activity (fraction)
Give the value in fraction but do not write fraction after it.

Worked examples follow.
Supply reported Activity belonging to this compound: COc1ccc(C2C(C#N)=C(/N=C/c3ccc4c(c3)OCO4)Oc3nc(Nc4ccc(S(N)(=O)=O)cc4)sc32)cc1 (stereo not drawn)
0.814

Supply reported Activity belonging to this compound: COc1ccc(C2C(C#N)=C(/N=C/c3ccc(Cl)cc3)Oc3nc(Nc4ccc(S(N)(=O)=O)cc4)sc32)cc1 (stereo not drawn)
0.443

Supply reported Activity belonging to this compound: COc1ccc(C2C(C#N)=C(/N=C/c3ccc(Cl)cc3Cl)Oc3nc(Nc4ccc(S(N)(=O)=O)cc4)sc32)cc1 (stereo not drawn)
0.693

Supply reported Activity belonging to this compound: COc1ccc(C2C(C#N)=C(/N=C/c3ccc(N(C)C)cc3)Oc3nc(Nc4ccc(S(N)(=O)=O)cc4)sc32)cc1 (stereo not drawn)
0.792

More entries:
Supply reported Activity belonging to this compound: COc1ccc(C2C(C#N)=C(/N=C/c3ccc(O)cc3)Oc3nc(Nc4ccc(S(N)(=O)=O)cc4)sc32)cc1 (stereo not drawn)
0.872

Supply reported Activity belonging to this compound: COc1ccc(C2C(C#N)=C(N)Oc3nc(Nc4ccc(S(N)(=O)=O)cc4)sc32)cc1 (stereo not drawn)
0.81

Supply reported Activity belonging to this compound: COc1ccc(C2C(C#N)=C(/N=C/c3ccc([N+](=O)[O-])cc3)Oc3nc(Nc4ccc(S(N)(=O)=O)cc4)sc32)cc1 (stereo not drawn)
0.48

Supply reported Activity belonging to this compound: COc1ccc(C2C(C#N)=C(/N=C/c3ccccc3Cl)Oc3nc(Nc4ccc(S(N)(=O)=O)cc4)sc32)cc1 (stereo not drawn)
0.541
